system: PBMC of healthy adult blood donors from Colombo, Sri Lanka; test: Ex vivo IFNγ ELISPOT, HLA-matched PBMC of Sri Lankan blood donors; type: cell-based, human; conditions: number of donors responding to the epitope; restricting HLA allele and serotype as given
Ends that are not written are not given here.
Kindly state # donors responded for each of the entries shown.
Just the number, please, no unit after it.

Would you mind telling me what # donors responded value was observed for `IGIGVLLTW` ?
1

Would you mind telling me what # donors responded value was observed for `KSGAIKVLK` ?
1

Would you mind telling me what # donors responded value was observed for `FLMVLLIPEP` ?
1

Would you mind telling me what # donors responded value was observed for `EERDIPERSW` ?
1

Would you mind telling me what # donors responded value was observed for `FAGPVSQHNY` ?
3

Would you mind telling me what # donors responded value was observed for `GFFLRKLTSR` ?
1

Would you mind telling me what # donors responded value was observed for `CLIPTAMAF` ?
1

Would you mind telling me what # donors responded value was observed for `IANQAAILM` ?
1

Would you mind telling me what # donors responded value was observed for `ATGPVLTLW` ?
2

Would you mind telling me what # donors responded value was observed for `EPISYDPKF` ?
1

Would you mind telling me what # donors responded value was observed for `MALSIVSLF` ?
1
